Test system: SNB-75 CNS
Method: NCI-60 one-dose screen, 48 h
Recorded Conditions: 10 µM unless noted
This is part of a sample that, as a whole, favours compounds with a hit. Of some 83,000 tested, about 20% had one in any assay. The source made the active and inactive calls. The calls were made as follows: active = growth percent below 10; inactive = the rest.
API: response.call in Yes = active, No = inactive

Compound | Class Label
CC1CCCCN1CCCNC(=O)c1ccc2c(c1)sc1nc(-c3ccc(F)cc3)cn12 (stereo not given) | No
Cc1cc(Nc2ccc(OCc3ccccc3)cc2)nc2cc(O)ccc12 | No
C1=CC2(C=C1)OC21CCC2(C=CC3(C2)OC3C2CCCCC2)CC1 (stereo not given) | No

input: Test call, this compound: `COc1ccccc1C(=O)O/N=C(\N)Cc1cccc2ccccc12`
output: No

input: Test call, this compound: `O=C(/C=C/c1ccc(C(F)(F)F)cc1)c1ccc(Nc2nc(NCCO)nc(Nc3ccc(Cl)cc3)n2)cc1`
output: No
